system: NCI-H1651; assay: relative viability (nuclei count vs DMSO), 5 days (fraction); higher = more cells survive; settings: first compound 0.04 µM
measurement-kind: relative viability
Numbers only.

For each entry beneath this line, provide reported relative viability.
1. COc1cc(N2CCC(C(N)=O)CC2)ccc1Nc1nc(N)c(Cl)c(Nc2ccccc2S(=O)(=O)C(C)C)n1 [HG-5-88-01] + O=C(CCCCCCC(=O)Nc1ccccc1)NO [Vorinostat] (partner 1 µM)
2. C[C@@H]1CN(CC(=O)Nc2ccc3c(c2)Cc2cccc(-c4cc(=O)cc(N5CCOCC5)o4)c2S3)C[C@H](C)O1 + CS(=O)(=O)N1CCN(Cc2cc3nc(-c4cccc5[nH]ncc45)nc(N4CCOCC4)c3s2)CC1 [Pictilisib] (partner 1 µM)

Result:
1. 0.509
2. 0.59
